Some compounds, each annotated with its measured melting point.
Kindly answer with a numeric value in °C, unit omitted.

Before answering, review these 3 worked examples.
- FC1(F)C(Cl)=C(Cl)C(F)(F)C(F)(F)C1(F)F: -70
- O=C(O)CNCP(=O)(O)O: 190
- CCCN(CCC)c1c([N+](=O)[O-])cc(C(F)(F)F)cc1[N+](=O)[O-]: 49

Query block: Recorded melting point of CCP(CC)CC , please.
Result block: -88

Query block: Could you share which melting point value was measured for CC1(C)CNC(=NN=C(/C=C/c2ccc(C(F)(F)F)cc2)/C=C/c2ccc(C(F)(F)F)cc2)NC1 ?
Result block: 188
